Entry source: patent US11945787B2

compounds and their reported % protection at indicated concentration 10 nM
System: PC12 cells
protocol: KCN-induced necrosis of PC12 cells, LDH release
Type: cell-based, rat
experimental.conditions: 10 nM; KCN-induced necrosis (Table 2)
parameter.measured: % protection at indicated concentration 10 nM

smiles.notation | endpoint.result
CCOC(=O)CN1C(=O)c2ccccc2S1(=O)=O | 35%
CC(C)C(=O)Nc1ccc(Oc2ccc(NC(=O)C(C)C)cc2)cc1 | 32%
Cc1ccnc(Nc2nc(-c3cc(C)c(C)cc3C)cs2)c1 | 38%
COc1cc(OC)cc(-c2nc3ccc(Br)cc3c(=O)o2)c1 | 38%
CN(C)c1ccc(Nc2nc(-c3ccc(Cl)cc3)cs2)cc1 | 55%
CC(=O)Oc1ccc2nc(-c3cccc(Br)c3)oc(=O)c2c1 | 28%
O=C(C1CCCC1)N1CCN=C1N1CCCC1 | 51%
